Assay: chemical genetic growth profiling, strain panel (AID 1159580);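 further: tested at 20 µM; growth read once vehicle control cultures reached saturation at 30 °C; lower values mean less growth of the strain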
Conditions: S. cerevisiae deletion strains, growth OD, locus YGR078C, strain PAC10
In all, about 5,500 compounds went through this assay and about 2,000 (36%) were called active. Not shown: some 18% with an inconclusive outcome. No stated cut-off is given here; in the data, active means normalized growth mostly below about 0.91 (no sharp cut-off); inconclusive means no clear call, values can overlap the other calls; inactive means mostly above about 0.92. This is one part of the list.
Answer with one of the outcomes active, inactive

### Prompt What classification did CNc1ccc(C(=O)CC(O)CCC(C)C2OC(=O)CC(O)CC(=O)CC(O)CC(O)CC(O)CC(O)CC3(O)CC(O)C(C(=O)OC)C(CC(OC4OC(C)C(O)C(N)C4O)/C=C/C=C/C=C/C=C/C=C/C=C/C=C/C2C)O3)cc1 (stereo unspecified) end up with in this test?
### Response active

### Prompt What classification did CC(=O)O[C@H]1CC[C@@]2(C)C(C[C@@H](OC(C)=O)[C@]3(C)C2CC[C@@]2(C)[C@H](c4ccoc4)OC(=O)[C@H]4O[C@]423)C1(C)C (stereo partly specified) end up with in this test?
### Response inactive

### Prompt What classification did CCCc1c(-c2ccc(O)cc2)nn(-c2ccc(O)cc2)c1-c1ccc(O)cc1 end up with in this test?
### Response inactive

---
### Prompt What classification did c1ccc2c(CC3=NCCN3)cccc2c1 end up with in this test?
### Response inactive

### Prompt What classification did CC(=O)O[C@H]1C[C@@H](OC(C)=O)C(C)(C)C2C[C@@H](O)[C@]3(C)C(CC[C@@]4(C)[C@H](c5ccoc5)OC(=O)[C@H]5O[C@]543)[C@]21C (stereo partly specified) end up with in this test?
### Response inactive
